# system.under.test: Human CARM1 (PRMT4) (Homo sapiens)
# Construct: Flag-CARM1-His; made in house; host or cells: HEK 293F cells (BacMam baculovirus)
# Sequence (Q86X55 1-585 isoform Q86X55-1): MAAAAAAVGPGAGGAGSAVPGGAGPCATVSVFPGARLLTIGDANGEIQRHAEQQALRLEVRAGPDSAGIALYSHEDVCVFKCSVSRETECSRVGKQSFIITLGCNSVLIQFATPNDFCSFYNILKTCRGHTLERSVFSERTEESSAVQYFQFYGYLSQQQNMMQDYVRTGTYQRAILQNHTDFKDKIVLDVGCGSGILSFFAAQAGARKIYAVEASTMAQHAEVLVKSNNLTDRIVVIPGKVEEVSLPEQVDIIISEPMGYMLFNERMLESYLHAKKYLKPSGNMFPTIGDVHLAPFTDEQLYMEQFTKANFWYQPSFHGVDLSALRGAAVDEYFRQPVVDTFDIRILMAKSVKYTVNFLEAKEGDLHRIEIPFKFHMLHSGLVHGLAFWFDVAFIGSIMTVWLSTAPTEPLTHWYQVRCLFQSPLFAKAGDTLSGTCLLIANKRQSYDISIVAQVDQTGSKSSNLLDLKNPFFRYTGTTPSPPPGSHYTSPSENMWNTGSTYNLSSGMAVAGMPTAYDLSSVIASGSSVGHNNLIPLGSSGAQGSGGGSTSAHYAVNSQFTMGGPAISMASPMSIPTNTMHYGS
# protocol.details: CARM1 Biochemical Assay
# test.context: PRMT4 IC50, biochemical evaluation, CARM1 (PRMT4), peptide substrate
We begin with a simple list: items and their reported IC50.

Some compounds with known IC50 results, for comparison:
test.smiles: CNCCN(C)Cc1n[nH]c2ccc(OCc3ccc(C(F)(F)F)cc3)cc12
reported: 3.01 to 10 µM
--
test.smiles: CNCCN(C)Cc1c2cc(OCc3ccc(C#N)cc3)ccc2nn1C1CCOCC1
reported: 3.01 to 10 µM
--
test.smiles: CCCOc1ccc2[nH]nc(CN(C)CCNC)c2c1
reported: 0.101 to 1 µM
--
test.smiles: CNCCN(C)Cc1n[nH]c2ccc(C3CCOCC3)cc12
reported: 0.101 to 1 µM
--
test.smiles: CNCCN(C)Cc1n[nH]c2ccc(C3=CCCCC3)cc12
reported: 0.101 to 1 µM
--
test.smiles: CNCCN(C)Cc1n[nH]c2ccc(OCc3ccc(C(C)(C)C)cc3)cc12
reported: 3.01 to 10 µM

Reported IC50 for CNCCN(C)Cc1n[nH]c2ccc(OCc3cccc(C(C)=O)c3)cc12 : what is it?
0.101 to 1 µM

Same again, this time with CNCCN(C)Cc1nn(C)c2ccc(OCc3ccc(C#N)cc3)cc12
0.101 to 1 µM

Same again, this time with CNCCN(C)Cc1n[nH]c2ccc(OC(C)C)cc12
1.01 to 3 µM

---

# system.under.test: human PRMT6 (Homo sapiens, UniProt Q96LA8)
# Sequence (Q96LA8 with tags, fused parts or gaps): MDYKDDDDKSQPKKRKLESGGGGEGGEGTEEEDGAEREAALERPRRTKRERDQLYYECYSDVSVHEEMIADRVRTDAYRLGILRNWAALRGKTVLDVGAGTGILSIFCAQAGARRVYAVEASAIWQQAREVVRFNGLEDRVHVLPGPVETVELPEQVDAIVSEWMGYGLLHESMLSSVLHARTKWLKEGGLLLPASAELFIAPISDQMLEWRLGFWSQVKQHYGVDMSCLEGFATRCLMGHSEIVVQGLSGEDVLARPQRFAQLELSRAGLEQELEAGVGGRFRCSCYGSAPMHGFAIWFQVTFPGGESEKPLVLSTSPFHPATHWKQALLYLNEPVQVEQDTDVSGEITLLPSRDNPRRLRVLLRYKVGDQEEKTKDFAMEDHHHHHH
# protocol.details: biochemical
# test.context: biochemical evaluation, peptide substrate; read-out: PRMT6 IC50
# Excerpt: General Materials. […] General Procedure for PRMT6 Enzyme Assays on Peptide Substrates. […] The plates were then read in a PerkinElmer TopCount plate reader to measure the quantity of ^3H-labeled peptide bound to the Flashplate surface, measured as disintegrations per minute (dpm) or alternatively, referred to as counts per minute (cpm). […]
measure.name: IC50

Some compounds with known IC50 results, for comparison:
compound: CNCCN(C)Cc1n[nH]c2ccc(Oc3ccccc3Cl)cc12
reported: 101 to 1000 nM
--
compound: CNCCN(C)Cc1n[nH]c2ccc(OCC3CCN(C(C)=O)CC3)cc12
reported: 1010 to 3000 nM
--
compound: CNCCN(C)Cc1n[nH]c2ccc(C3CCCCC3)cc12
reported: < 100 nM
--
compound: CNCCN(C)Cc1n[nH]c2ccc(OCc3cccc(C(C)(C)C)c3)cc12
reported: < 100 nM
--
compound: CNCCN(C)Cc1n[nH]c2ccc(OCc3ccc(C(C)(C)C)cc3)cc12
reported: < 100 nM

Which measured IC50 belongs to CNCCN(C)Cc1n[nH]c2ccc(OC(C)C(C)C)cc12 (centres unmarked) , tested on human PRMT6 (Homo sapiens, UniProt Q96LA8)?
< 100 nM

Same again, this time with CNCCN(C)Cc1n[nH]c2ccc(C3CCOCC3)cc12
< 100 nM

Same again, this time with CNCCN(C)Cc1n[nH]c2ccc(OCCC(C)C)cc12
< 100 nM

---

# system.under.test: human PRMT1 (Homo sapiens, UniProt Q99873)
# Construct: GST-tagged PRMT1; made in house; host or cells: High Five insect cells (baculovirus)
# Sequence (Q99873 other isoform, or with tags, fused parts or gaps): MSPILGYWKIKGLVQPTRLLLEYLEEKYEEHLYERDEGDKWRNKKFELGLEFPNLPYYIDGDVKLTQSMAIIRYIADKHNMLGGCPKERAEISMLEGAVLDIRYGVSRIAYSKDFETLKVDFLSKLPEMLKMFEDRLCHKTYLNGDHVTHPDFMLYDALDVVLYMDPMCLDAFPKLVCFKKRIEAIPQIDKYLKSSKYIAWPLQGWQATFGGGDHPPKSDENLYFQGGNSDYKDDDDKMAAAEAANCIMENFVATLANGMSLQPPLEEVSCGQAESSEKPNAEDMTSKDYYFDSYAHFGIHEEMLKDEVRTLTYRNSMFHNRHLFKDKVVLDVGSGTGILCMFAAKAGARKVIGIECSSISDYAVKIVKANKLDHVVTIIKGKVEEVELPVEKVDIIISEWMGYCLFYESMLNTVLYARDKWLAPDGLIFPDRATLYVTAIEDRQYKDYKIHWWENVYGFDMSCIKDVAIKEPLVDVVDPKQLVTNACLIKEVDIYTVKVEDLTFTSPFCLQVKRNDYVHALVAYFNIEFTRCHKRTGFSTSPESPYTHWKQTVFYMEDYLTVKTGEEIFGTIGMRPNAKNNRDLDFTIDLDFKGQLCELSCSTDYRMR
# protocol.details: biochemical
# test.context: biochemical evaluation, peptide substrate; read-out: PRMT1 IC50
We begin with a simple list: items and their reported IC50.

Some molecules with known IC50 results, for comparison:
molecule: CNCCN(C)Cc1n[nH]c2ccc(OCc3cccc(C(F)(F)F)c3)cc12
reported: < 100 nM

molecule: CNCCN(C)Cc1n[nH]c2ccc(OCc3ccc(C(C)=O)cc3)cc12
reported: < 100 nM

molecule: CNCCN(C)Cc1n[nH]c2ccc(OCc3ccn(CC(C)C)n3)cc12
reported: 101 to 1000 nM

Reported IC50 for CNCCN(C)Cc1n[nH]c2ccc(OCc3cccc(C(C)(C)C)c3)cc12 : what is it?
101 to 1000 nM

Same again, this time with CNCCN(C)Cc1n[nH]c2ccc(OCC3CCN(C(C)=O)CC3)cc12
1010 to 3000 nM

Same again, this time with CCCOc1ccc2[nH]nc(CN(C)CCNC)c2c1
≤ 100 nM

Same again, this time with CNCCN(C)Cc1n[nH]c2cccc(OCCC(O)CO)c12 (centres unmarked)
101 to 1000 nM

Same again, this time with CNCCN(C)Cc1n[nH]c2ccc(OC)cc12
3010 to 10000 nM

Same again, this time with CNCCN(C)Cc1n[nH]c2ccc(Oc3ccccc3C(F)(F)F)cc12
3010 to 10000 nM

Same again, this time with CNCCN(C)Cc1n[nH]c2ccc(Oc3ccc(C(F)(F)F)cc3)cc12
< 100 nM

Same again, this time with CNCCN(C)Cc1n[nH]c2ccc(OCc3ccc(C(N)=O)cc3)cc12
101 to 1000 nM

Same again, this time with CNCCN(C)Cc1n[nH]c2ccc(Oc3cccc(OC)c3)cc12
< 100 nM
